These entries and their values trace back to patent US20260294922A1.

# TEST_SUMMARY: In vitro metabolism in mouse liver microsomes
# CONDITION_DETAILS: mouse, microsomes
Field: half-life. Provide a value for each of the compounds that follow.
Answers are plain numbers, in h.

Consider the following items and state reported half-life for each.
1. CN(C)C(=O)c1cc(O)cc(NC(=O)c2cc3c(-c4cnc5[nH]ccc5c4)cccc3s2)c1
2. Cc1c[nH]c2ncc(-c3cccc4sc(C(=O)Nc5ccc(O)c(C(=O)N(C)C)c5)cc34)cc12
3. CN(C)C(=O)c1ccc(O)c(NC(=O)c2cc3c(-c4cnc5[nH]ccc5c4)cccc3s2)c1
4. CN(C)C(=O)c1cc(NC(=O)c2cc3c(-c4cnc5[nH]ccc5c4)cccc3s2)ccc1O

Response:
0.967
2.18
0.4
1.42

* * *

# TEST_TARGET: CSNK1D (Homo sapiens)
# Sequence (P48730 whole entry): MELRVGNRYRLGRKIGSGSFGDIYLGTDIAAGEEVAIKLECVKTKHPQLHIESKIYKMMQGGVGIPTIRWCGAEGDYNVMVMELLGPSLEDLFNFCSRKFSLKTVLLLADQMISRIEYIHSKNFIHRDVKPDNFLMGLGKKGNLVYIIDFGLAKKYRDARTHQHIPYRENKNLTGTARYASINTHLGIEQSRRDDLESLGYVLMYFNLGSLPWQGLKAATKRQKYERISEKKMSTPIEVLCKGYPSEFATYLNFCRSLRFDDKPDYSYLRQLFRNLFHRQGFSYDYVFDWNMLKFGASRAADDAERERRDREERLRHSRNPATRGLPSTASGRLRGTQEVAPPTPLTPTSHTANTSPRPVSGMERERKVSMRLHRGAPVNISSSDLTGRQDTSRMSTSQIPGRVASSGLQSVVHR
MEASURED_METRIC: Kd (µM)
Numbers only, in µM.

Consider the following items and state reported Kd for each.
1. CN(C)C(=O)c1cc(NC(=O)c2cc3c(-c4cnc5[nH]ccc5c4)cccc3s2)ccc1O
2. COc1ccc(NC(=O)c2cc3c(-c4cnc5[nH]ccc5c4)cccc3s2)cc1C(=O)N1CCCCC1

Response:
[0.821, 8.35]

* * *

# TEST_SUMMARY: Pharmacokinetics after intraperitoneal administration in mice
# Assay type: in vivo
# CONDITION_DETAILS: mouse, ip, 50 mg/kg, plasma
MEASURED_METRIC: Tmax (h)
One number for each entry, in h.

Prompt: Name the recorded Tmax of the compound listed here: CN(C)C(=O)c1cc(NC(=O)c2cc3c(-c4cnc5[nH]ccc5c4)cccc3s2)ccc1O
Response: 3

* * *

# TEST_TARGET: JNK3 (Homo sapiens, UniProt P53779)
# Sequence (P53779 whole entry): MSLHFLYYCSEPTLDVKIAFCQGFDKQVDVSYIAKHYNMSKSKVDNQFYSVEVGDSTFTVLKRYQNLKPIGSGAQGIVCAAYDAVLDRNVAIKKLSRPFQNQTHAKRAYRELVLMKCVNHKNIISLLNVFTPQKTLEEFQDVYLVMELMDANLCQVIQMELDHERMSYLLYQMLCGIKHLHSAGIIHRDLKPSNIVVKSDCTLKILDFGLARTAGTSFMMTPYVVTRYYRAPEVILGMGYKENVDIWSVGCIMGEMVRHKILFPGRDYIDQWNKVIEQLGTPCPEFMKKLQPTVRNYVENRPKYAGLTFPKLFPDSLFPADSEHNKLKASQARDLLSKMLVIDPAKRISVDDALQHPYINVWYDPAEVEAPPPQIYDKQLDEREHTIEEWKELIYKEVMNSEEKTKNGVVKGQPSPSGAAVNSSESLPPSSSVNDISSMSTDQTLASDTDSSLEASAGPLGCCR
# TEST_SUMMARY: JNK3 kinase (intrinsic ATPase, Kinase-Glo) assay
# Type: biochemical
# CONDITION_DETAILS: Table 3a; read-out: Kd JNK3
Field: log10 Kd. Provide a value for each of the molecules that follow.
log10 Kd, nM

Consider the following items and state reported log10 Kd for each.
1. CN(C)C(=O)c1cc(O)cc(NC(=O)c2cc3c(-c4cnc5[nH]ccc5c4)cccc3s2)c1 [CDD-2937]
2. CN(C)C(=O)c1cc(NC(=O)c2cc3c(-c4cnc5[nH]ccc5c4)cccc3s2)ccc1C(F)(F)F [CDD-2732]
3. CN(C)C(=O)c1cc(NC(=O)c2cc3c(-c4cnc5[nH]ccc5c4)cccc3s2)ccn1 [CDD-3012]
4. CNCc1ccc(NC(=O)c2ccc3ncc(-c4cnc5[nH]ccc5c4)n3c2)cc1 [CDD-2488]
5. CN(C)CCNC(=O)c1cc(NC(=O)c2cc3c(-c4cnc5[nH]ccc5c4)cccc3s2)ccc1O [CDD-3086]
6. CN(C)C(=O)c1cc(NC(=O)c2nc3c(-c4cnc5[nH]ccc5c4)cccc3s2)ccc1O [CDD-2856]
7. O=C(Nc1ccccc1)c1ccn2ncc(-c3cnc4[nH]ccc4c3)c2c1 [CDD-2485]

Response:
1: 0.22; 2: 1.39; 3: 0.32; 4: 0.64; 5: 0.72; 6: 0.01; 7: -0.14

Consider the following items and state reported log10 Kd for each.
1. O=C(c1cc2c(-c3cnc4[nH]ccc4c3)cccc2s1)N1CCN(c2ccccc2)C(=O)C1 [CDD-3116]
2. CNCc1ccc(NC(=O)c2cc3c(-c4cnc5[nH]ccc5c4)cccc3s2)cc1 [CDD-2575]
3. Cc1ccc(NC(=O)c2ccn3ncc(-c4cnc5[nH]ccc5c4)c3c2)cc1 [CDD-2288]

Response:
1. 2.06
2. 0.44
3. 0.15

Consider the following items and state reported log10 Kd for each.
1. CNC(=O)c1ccn2ncc(-c3cnc4[nH]ccc4c3)c2c1 [CDD-2574]
2. CN(C)C(=O)c1cc(NC(=O)c2cc3c(-c4cnc5[nH]ccc5c4)cccc3s2)ccc1OC(F)(F)F [CDD-2857]
3. COc1ccc(NC(=O)c2cc3c(-c4cnc5[nH]ccc5c4)cccc3s2)cc1C(=O)N1CCOCC1 [CDD-2635]

Response:
1: 0.82; 2: 1.20; 3: -0.12
